# selectivity ratio at 72 h values compiled below
- Tested on: T. cruzi epimastigotes
- testSummary: Trypanocidal activity against T. cruzi epimastigotes (XTT)
- Assay type: cell-based, Trypanosoma cruzi
- condition: mouse (RAW 264.7 cells) / Trypanosoma cruzi (epimastigotes), RAW cell IC50 / T. cruzi IC50; read-out: T. cruzi SI (selectivity index, cytotoxicity/anti-protozoal activity)
assayMetric: selectivity ratio at 72 h

1) COc1ccc2c(c1)-c1cc(C(N)=O)ccc1C(C)(C)O2 [5e]
0.4
2) COc1ccc2c(c1)-c1cc(CNCC(C)C)ccc1C(C)(C)O2 [3g]
0.8
3) COc1ccc2c(c1)-c1cc(C(=N)NO)ccc1C(C)(C)O2 [compound 6]
0.8
4) O=C(Cn1ccnc1[N+](=O)[O-])NCc1ccccc1 [Benznidazole, reference compound]
3.9
5) COc1ccc2c(c1)-c1cc(COC(C)C)ccc1C(C)(C)O2 [3d]
2.5
6) COc1ccc2c(c1)-c1cc(C=O)ccc1C(C)(C)O2 [5a]
1.6
7) C=CC(=O)OCc1ccc2c(c1)-c1cc(OC)ccc1OC2(C)C [4j]
> 5
8) COc1ccc2c(c1)-c1cc(CNCCC(C)C)ccc1C(C)(C)O2 [3h]
1.3
9) COc1ccc2c(c1)-c1cc(COC(=O)C(C)C)ccc1C(C)(C)O2 [4b]
3
10) COc1ccc2c(c1)-c1cc(COC(=O)CC(C)C)ccc1C(C)(C)O2 [4e]
6.7

Data provenance is paper PMC7412453.
